Provide the recorded EC50 for the entries that follow.
Molecular target: ERα (Homo sapiens)
Construct: T47D-ERE-Luc^Neo, an ERα-positive cell line, stably transfected with a luciferase reporter cassette; endogenous in cells
Assay: Estrogenic activity luciferase reporter assay in T47D-ERE-Luc^Neo
Settings: 24 h incubation, read-out: EC50, oestrogenic activity (transcriptional activity of oestrogen-responsive luciferase reporter)
Give bare numbers, in nM.

Exam item: Annotate the molecule COc1cc2c(cc1O)CC[C@@H]1[C@@H]2CC[C@]2(C)[C@@H](O)CC[C@@H]12 with its measured EC50.
Marked response: 11.1

In the following, a different molecule is considered.
Exam item: Please give measured EC50 of the following entry: CN(C)Cc1cc2c(cc1O)CC[C@@H]1[C@@H]2CC[C@]2(C)[C@@H](O)CC[C@@H]12 [Compound 4a, 2-[(dimethylamino)methyl]-oestradiol]
Marked response: 653
